PROTOCOL_NOTES: Solubility of the compound
Assay type: physicochemical
QUANTITY: solubility (µM)
Supply the numeric figure in µM, leaving out any unit text.

Lookup: Entry C[C@@H]1C[C@H]2[C@@H]3CCC4=CC(=O)C=C[C@]4(C)C3=CC[C@]2(C)[C@@]1(O)C(=O)CO [VAMOROLONE] : reported solubility = ?
Found: 187

###

System: C2C12
PROTOCOL_NOTES: Cytotoxicity against mouse C2C12 cells assessed as cell viability at 0.01 to 100 ug/mL after 24 hrs by MTT assay
Format: cell-based
ASSAY_CONTEXT: c2c12, 24 h
QUANTITY: Activity

See these solved cases before continuing.
1. C[C@@H]1C[C@H]2[C@@H]3CCC4=CC(=O)CC[C@]4(C)C3=CC[C@]2(C)[C@H]1C(=O)CN1CCN(C)CC1: Non-toxic
2. CC[C@@H]1C[C@H]2[C@@H]3CCC4=CC(=O)C=C[C@]4(C)C3=CC[C@]2(C)[C@H]1C(=O)CO: Toxic
3. C[C@H]1C[C@H]2[C@@H]3CCC4=CC(=O)C=C[C@]4(C)C3=CC[C@]2(C)[C@@]1(O)C(=O)CO: Non-toxic
4. CCCC[C@@H]1C[C@H]2[C@@H]3CCC4=CC(=O)C=C[C@]4(C)C3=CC[C@]2(C)[C@H]1C(=O)CO: Toxic
5. C[C@@H]1C[C@H]2[C@@H]3CCC4=CC(=O)C=C[C@]4(C)C3=CC[C@]2(C)[C@H]1C(=O)CO: Non-toxic

Lookup: Entry `C[C@@H]1C[C@H]2[C@@H]3CCC4=CC(=O)CC[C@]4(C)C3=CC[C@]2(C)[C@H]1C(=O)CN1CCOCC1` : reported Activity = ?
Found: Non-toxic

Lookup: Entry `C[C@@H]1C[C@H]2[C@@H]3CCC4=CC(=O)CC[C@]4(C)C3=CC[C@]2(C)[C@H]1C(=O)CN1CCCC1` : reported Activity = ?
Found: Non-toxic

###

PROTOCOL_NOTES: Tmax in CD1 mouse at 10 mg/kg, iv
Format: ADME, organism-based
Set-up: dose 10 mg/kg, route intravenous
ASSAY_CONTEXT: in vivo
QUANTITY: Tmax (min)
Supply the numeric figure in min, leaving out any unit text.

1) C[C@@H]1C[C@H]2[C@@H]3CCC4=CC(=O)C=C[C@]4(C)C3=CC[C@]2(C)[C@@]1(O)C(=O)CO: 5

Lookup: Entry `C[C@@H]1C[C@H]2[C@@H]3CCC4=CC(=O)C=C[C@]4(C)C3=CC[C@]2(C)[C@H]1C(=O)CO` : reported Tmax = ?
Found: 5

###

PROTOCOL_NOTES: Metabolic stability in rat liver microsomes assessed as compound ramaining at 2 uM measured at 1 hr
Assay type: ADME, Microsome
ASSAY_CONTEXT: read-out: Stability
QUANTITY: remaining at 1 h, 2 µM (%)
Supply the numeric figure in %, leaving out any unit text.

Lookup: Entry `C[C@@H]1C[C@H]2[C@@H]3CCC4=CC(=O)C=C[C@]4(C)C3=CC[C@]2(C)[C@@]1(O)C(=O)CO` : reported remaining at 1 h, 2 µM = ?
Found: 35.4

###

PROTOCOL_NOTES: Volume of distribution at steady state in CD1 mouse at 10 mg/kg, iv
Format: ADME, organism-based
Design: dose 10 mg/kg, route intravenous
ASSAY_CONTEXT: in vivo, read-out: Vdss
// values below are reported Vd
Supply the numeric figure in L/kg, leaving out any unit text.

1) C[C@@H]1C[C@H]2[C@@H]3CCC4=CC(=O)C=C[C@]4(C)C3=CC[C@]2(C)[C@H]1C(=O)CO: 0.874

Next molecule, please.
Lookup: Entry `C[C@@H]1C[C@H]2[C@@H]3CCC4=CC(=O)C=C[C@]4(C)C3=CC[C@]2(C)[C@@]1(O)C(=O)CO` : reported Vd = ?
Found: 0.757

Taken from ChEMBL document CHEMBL2346557.
